Test system: Escherichia coli
EXPERIMENT NOTES: Antibacterial activity against Escherichia coli DH5alpha assessed as growth inhibition at 0.125 ug/ml after 16 hrs by spectrophotometric method
Type: functional
TEST CONDITIONS: DH5[alpha], read-out: GI
PARAMETER MEASURED: inhibition of growth at 0.125 µg/mL (%)

INSERT INTO results (cpd_smiles, parameter_measured, measured_value) VALUES
  ('O=C(O)c1cn(C2CC2)c2cc(N3CCNCC3)c(F)cc2c1=O', 'inhibition of growth at 0.125 µg/mL', 52.3),
  ('O=C(NCCCC[C@H](NC(=O)OCc1ccccc1)C(=O)N1CCN(c2cc3c(cc2F)c(=O)c(C(=O)O)cn3C2CC2)CC1)OCc1ccccc1', 'inhibition of growth at 0.125 µg/mL', 4.12),
  ('O=C(NCC(=O)N1CCN(c2cc3c(cc2F)c(=O)c(C(=O)O)cn3C2CC2)CC1)OCc1ccccc1', 'inhibition of growth at 0.125 µg/mL', -2.17),
  ('C[C@H](NC(=O)OCc1ccccc1)C(=O)N1CCN(c2cc3c(cc2F)c(=O)c(C(=O)O)cn3C2CC2)CC1', 'inhibition of growth at 0.125 µg/mL', -2.93);

----------
Tested on: Staphylococcus aureus
EXPERIMENT NOTES: Antibacterial activity against Staphylococcus aureus RN4220 assessed as growth inhibition at 2 ug/ml after 16 hrs by spectrophotometric analysis
Assay type: functional
TEST CONDITIONS: RN4220, 16 h, read-out: GI
In this section, each of the compounds is paired with its reported inhibition of growth at 2 µg/mL.
PARAMETER MEASURED: inhibition of growth at 2 µg/mL (%)

INSERT INTO assay_data (compound, measured_target, parameter_measured, u, measured_value) VALUES
  ('O=C(O)c1cn(C2CC2)c2cc(N3CCNCC3)c(F)cc2c1=O [CIPROFLOXACIN]', 'Staphylococcus aureus', 'inhibition of growth at 2 µg/mL', '%', 48.4),
  ('O=C(NCC(=O)N1CCN(c2cc3c(cc2F)c(=O)c(C(=O)O)cn3C2CC2)CC1)OCc1ccccc1', 'Staphylococcus aureus', 'inhibition of growth at 2 µg/mL', '%', 45.7),
  ('C[C@H](NC(=O)OCc1ccccc1)C(=O)N1CCN(c2cc3c(cc2F)c(=O)c(C(=O)O)cn3C2CC2)CC1', 'Staphylococcus aureus', 'inhibition of growth at 2 µg/mL', '%', 23.2),
  ('O=C(NCCCC[C@H](NC(=O)OCc1ccccc1)C(=O)N1CCN(c2cc3c(cc2F)c(=O)c(C(=O)O)cn3C2CC2)CC1)OCc1ccccc1', 'Staphylococcus aureus', 'inhibition of growth at 2 µg/mL', '%', 39.3);
